System: MS2 coat protein
Test: apparent KD of MS2 coat protein; designed switch direction (-1 OFF switch, 1 ON switch): -1; higher = weaker reporter binding
Conditions: input ligand: none
Quick list: apparent KD of MS2 coat protein per entry.
# number only, unit nM dropped from output

1. GGUCAUCAAGUCAGGAUAUCGUCUAAUCAAUCAGGCGAGAAGGGACAUGAGGAUCACCCAUGUCGACUCAUCAG [Ex4 #6] (Eterna round: R97, puzzle: Brourd's mod of Exclusion 4) ... 33.5
2. ACGGGUAAGUAAGGAUAUCCAACAGGCUGAAUUCAACCUGAACAUGAGGAUCACCCAUGUGGGUGGGAGAAGGUACUCUCCCGC [Diladiaen] (Eterna round: R96, puzzle: Exclusion NG 2) ... 93.7
3. CCCACGUCAGGAUAUCUAAAGGUCCGAAAUAACGGGACUGCAGAGAAGGGACAUGAGGAUCACCCAUGUCCUCG [EX4 C.21] (Eterna round: R97, puzzle: Exclusion 4) ... 18

Ask: Return apparent KD of MS2 coat protein for the following sequence: GGUGUGGCAGGAUAUACAUCGAAGGGUGCAAAGGGCUCGGCACAUGAGGAUCACCCAUGUAGAAGGGCCUACCA [Beated] (Eterna round: R96, puzzle: Exclusion 2)
Result: 15.6

Ask: Return apparent KD of MS2 coat protein for the following sequence: GGCACACAUGAGGAUCACCCAUGUGAGGAUAUGCUGCGAUCGUCGUAAGACGAUAGCAGUAGAAGGCACAUGCC [Mat - Exclusion 1 - Eli Mod - D8] (Eterna round: R97, puzzle: Exclusion 1)
Result: 20.5
